test system: BV2 microglia cells; experiment: Nitrite release (Griess reaction) in LPS-treated BV2 microglia; format: cell-based; details: 10 μM, LPS 1 μg/mL, 48 h, basal = 100
Answer each item with its documented Nitrite Release after 48 h.
Returns: string containing the numeric result and its unit.

q: For the compound Nc1cc(-c2ccccc2)cc(-c2ccc(Cl)cc2)c1 [Compound 3c, 4-Chloro-5′-amino-m-terphenyl] , give its reported Nitrite Release after 48 h.
a: 138 ± 7%

q: Provide only the value of recorded Nitrite Release after 48 h for Nc1cc(-c2ccccc2)cc(-c2ccccc2)c1 [Compound 3a, 5′-Amino-m-terphenyl]
a: 120 ± 15 %

q: Give Nitrite Release after 48 h for Cc1ccc(-c2cc(N)cc(-c3ccccc3)c2)cc1 [Compound 3b, 4-Methyl-5′-amino-m-terphenyl]
a: 128 ± 10 %

q: // Input: COc1ccc(-c2cc(N)cc(-c3ccccc3)c2)cc1 [Compound 3e, 4-Methoxy-5′-amino-m-terphenyl] . Output its Nitrite Release after 48 h only.
a: 131 ± 13 %

* * *

biological target: human COX-2 (Homo sapiens, UniProt P35354); construct: purchased Cayman Chemicals 701050; assay: Cyclooxygenase colorimetric inhibitor screening assay, COX-2; type: biochemical; conditions: human COX-2, 50 µM; read-out: hCOX-2; % Inhibition at 50 µM;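 also: peroxidase activity of COX-2 followed colorimetrically through formation of oxidized TMPD at 590 nm, with arachidonic acid as substrate, compounds tested from 0.001 to 50 µM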
Sequence (P35354 18-604): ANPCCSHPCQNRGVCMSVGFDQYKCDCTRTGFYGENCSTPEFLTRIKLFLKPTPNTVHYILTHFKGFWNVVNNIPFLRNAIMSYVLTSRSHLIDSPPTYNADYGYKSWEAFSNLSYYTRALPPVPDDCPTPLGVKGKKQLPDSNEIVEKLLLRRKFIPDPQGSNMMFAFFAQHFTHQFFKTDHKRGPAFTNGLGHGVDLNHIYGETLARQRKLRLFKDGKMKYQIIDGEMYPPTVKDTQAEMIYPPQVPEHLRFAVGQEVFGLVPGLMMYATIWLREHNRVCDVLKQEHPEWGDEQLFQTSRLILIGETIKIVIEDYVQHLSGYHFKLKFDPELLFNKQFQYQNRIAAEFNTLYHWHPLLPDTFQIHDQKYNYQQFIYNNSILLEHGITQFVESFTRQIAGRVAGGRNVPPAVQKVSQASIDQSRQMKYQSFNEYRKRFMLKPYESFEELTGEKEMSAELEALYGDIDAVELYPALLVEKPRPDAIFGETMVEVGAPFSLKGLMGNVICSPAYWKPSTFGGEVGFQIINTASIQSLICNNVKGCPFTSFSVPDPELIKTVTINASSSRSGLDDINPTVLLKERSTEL
Would you kindly list inhibition at 50 µM for each of these compounds?

q: Using the record for COc1ccc(-c2noc(CC(=O)O)c2-c2ccc(OC)cc2)cc1 [Mofezolac, mofezolac, reference compound] , state its measured inhibition at 50 µM.
a: 42%

q: Let me know recorded inhibition at 50 µM for Nc1cc(-c2ccc(Cl)cc2)cc(-c2ccccc2)c1C(=O)O , thanks.
a: 4%

q: For the compound Nc1cc(-c2ccc(Br)cc2)cc(-c2ccc(Br)cc2)c1C(=O)O , report inhibition at 50 µM.
a: 12%

q: Given the compound O=C(Nc1cc(-c2ccc(Br)cc2)cc(-c2ccc(Br)cc2)c1)NC1CCCC1 , write its reported inhibition at 50 µM.
a: 30%

q: Provide inhibition at 50 µM value for the following compound: COc1ccc(-c2cc(N)c(C(=O)O)c(-c3ccccc3)c2)cc1
a: 20%

* * *

Test system: BV2 microglia cells
Test: Nitrite release (Griess reaction) in LPS-treated BV2 microglia
Format: cell-based
Conditions: 3 μM, LPS 1 μg/mL, 24 h, basal = 100
Method: The COX-1 inhibition data prompted us to undertake further work on the activity of compounds 3 in a neuroinflammation situation. Once we had verified that the compounds studied were not toxic per se in microglia BV2 cells (see the data in Table S1), we measured the nitrites released to determine the efficacy of our compounds in reducing microglia activation. […] Therefore, we evaluated the response of the BV2 microglia cells to a challenge of 1 μg/mL LPS. […]
Assignment: determine reported Nitrite Release after 24 h for the given compounds.
Value expressed in %; do not type the unit.

q: Give the reported Nitrite Release after 24 h for this compound. COc1ccc(-c2cc(N)cc(-c3ccccc3)c2)cc1 [Compound 3e, 4-Methoxy-5′-amino-m-terphenyl]
a: 110

q: Identify measured Nitrite Release after 24 h corresponding to Cc1ccc(-c2cc(N)cc(-c3ccccc3)c2)cc1 [Compound 3b, 4-Methyl-5′-amino-m-terphenyl]
a: 100

q: Give the reported value of Nitrite Release after 24 h for this record: Nc1cc(-c2ccccc2)cc(-c2ccc(Cl)cc2)c1 [Compound 3c, 4-Chloro-5′-amino-m-terphenyl]
a: 117

q: Assign Nitrite Release after 24 h to the following record: Nc1cc(-c2ccccc2)cc(-c2ccccc2)c1 [Compound 3a, 5′-Amino-m-terphenyl]
a: 110

Sourced from paper PMC10384011
